Data credit: the supplement of paper PMC6555819

# PBM binding z-score per record follows
- Tested on: PPARg homodimer (NR concentration 180 nM)
- assay-overview: PBM binding z-score (relative to random genomic background probes); higher = stronger binding; sequences stand for … in GC…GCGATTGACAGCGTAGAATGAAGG
Just the number, please, no unit attached.

These solved cases illustrate the format of a correct answer.
chain-sequence | experimental-system | quantity-kind | reported-measurement
AGAATGAGGTTGTTAAGATCAGGGAATTGCGGTC | PPARg homodimer (NR concentration 180 nM) | PBM binding z-score | 0.112
ATCGAAAGGTCGAAGGCGAGTATACCCACCCGAA | PPARg homodimer (NR concentration 180 nM) | PBM binding z-score | 1.03
CCTATTAGTTGATCATAAGGGCAACCGAAGCTCG | PPARg homodimer (NR concentration 180 nM) | PBM binding z-score | 1.64
CCAAGTTGGTCAAGGTCACACACGCTATAGGTAC | PPARg homodimer (NR concentration 180 nM) | PBM binding z-score | 3.54
CCACACAGGTGAGAAGGTAACTCAGCCTCGATTA | PPARg homodimer (NR concentration 180 nM) | PBM binding z-score | 1.35
ACTAGTTGGTCAGCTGAGGTCAGACACAATTCGG | PPARg homodimer (NR concentration 180 nM) | PBM binding z-score | 1.04
ATCTCTAGGTAAATATAGTTCAGTGAATGCAAAT | PPARg homodimer (NR concentration 180 nM) | PBM binding z-score | 1.19
CCTCGGAGGACAGAAGGTAAGAGCTGTCCGCTTT | PPARg homodimer (NR concentration 180 nM) | PBM binding z-score | -0.354
TGTCAAAGTTCAAAGATAACGTAAGTATCCACAC | PPARg homodimer (NR concentration 180 nM) | PBM binding z-score | 2.47
TGAATGAGGTTCTAAGATCAGGGAACGTTGCAAA | PPARg homodimer (NR concentration 180 nM) | PBM binding z-score | -0.83

Prompt: Any idea what its PBM binding z-score is? The sequence is CCTCGGAGGACAACAGGAGGCCAGAGCTGCCAGA
Completion: -0.602

Prompt: Any idea what its PBM binding z-score is? The sequence is CCTACTGGGCCACGAAAGGTCATTGGTTCAGTGA
Completion: 3.95

Prompt: Any idea what its PBM binding z-score is? The sequence is CCTTAAGGGTCACTGACAGGTTATAGCATTTGGA
Completion: 3.85

Prompt: Any idea what its PBM binding z-score is? The sequence is AGAACGAGGACAATGAGTTGATAGCACGGGTGGC
Completion: 0.00958

Prompt: Any idea what its PBM binding z-score is? The sequence is ATATGTAGGTTGGCTGGGGTCATTCAGACTAGGC
Completion: 2.57

Prompt: Any idea what its PBM binding z-score is? The sequence is ATCTCTAGGTAAAGAAAGTTCAGTGAATGCAAAT
Completion: 1.41

Prompt: Any idea what its PBM binding z-score is? The sequence is GCTTACGGGTCAAAGGTTATAGCTTGAATAGAAT
Completion: 1.88

Prompt: Any idea what its PBM binding z-score is? The sequence is TCTTGTAGAGCAAGCAGGTTAAGAAAGCCTGAGT
Completion: -0.862

Prompt: Any idea what its PBM binding z-score is? The sequence is ATCTCTAGGTAACAAGTTCAGTGCAAGAGAGGAC
Completion: 1.36

Prompt: Any idea what its PBM binding z-score is? The sequence is CCTACTGGGACAAAAAGGTCATTGATGCCGATAA
Completion: 3.86

* * *

- Tested on: RXRa DBDmut IVT, anti-RXR (DBD mutation: RXRa K156A/R161A, NR concentration 90 nM)
- assay-overview: PBM binding z-score (relative to random genomic background probes); higher = stronger binding; sequences stand for … in GC…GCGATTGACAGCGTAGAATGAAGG
quantity-kind: PBM binding z-score
Just the number, please, no unit attached.

chain-sequence | experimental-system | reported-measurement
ATCCCTAGGTAAAGTTCAGTGAAAGATCGATAGA | RXRa DBDmut IVT, anti-RXR (DBD mutation: RXRa K156A/R161A, NR concentration 90 nM) | 1.28
ATCTCTAGGTAAAGACAGTTCAGTGAATGCAAAT | RXRa DBDmut IVT, anti-RXR (DBD mutation: RXRa K156A/R161A, NR concentration 90 nM) | 0.247
CCTACTAGGCCAAGGTCATTGATCAGTCAAAGCA | RXRa DBDmut IVT, anti-RXR (DBD mutation: RXRa K156A/R161A, NR concentration 90 nM) | 2.31
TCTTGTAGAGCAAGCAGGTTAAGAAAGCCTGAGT | RXRa DBDmut IVT, anti-RXR (DBD mutation: RXRa K156A/R161A, NR concentration 90 nM) | -0.187
GCACATAGGTAATACAAGGTGAAAGTCCGATTGT | RXRa DBDmut IVT, anti-RXR (DBD mutation: RXRa K156A/R161A, NR concentration 90 nM) | 0.115

Prompt: Any idea what its PBM binding z-score is? The sequence is CCGACTGCGGCAAAGGTTACCATACTCAGTACGA
Completion: 0.531

Prompt: Any idea what its PBM binding z-score is? The sequence is ACTAGCAGGCCAAGTTTGGGTCACTCAGACAAAG
Completion: 0.0571

Prompt: Any idea what its PBM binding z-score is? The sequence is CAAACTAGGTCAAGGTCACAGTCGGTTTGTGCCA
Completion: 2.66

Prompt: Any idea what its PBM binding z-score is? The sequence is TCATATAGGTAAACAGGTGTAAGTCCGTAAGTTA
Completion: 1.57

Prompt: Any idea what its PBM binding z-score is? The sequence is CCTACTGGGCCACGAAAGGTCATTTATTCAGTGA
Completion: 0.751

Prompt: Any idea what its PBM binding z-score is? The sequence is ATCGAAAGGTCGAGGTCAGTATAGAGAAAGGGAA
Completion: 2.01

Prompt: Any idea what its PBM binding z-score is? The sequence is GATACAGGGTCAGTTAGAGGCCAGAGTATGGAAA
Completion: 1.88

Prompt: Any idea what its PBM binding z-score is? The sequence is GCTTACGCGTCAAAGGTTATAGCATGAATAGAAT
Completion: 0.189

Prompt: Any idea what its PBM binding z-score is? The sequence is GCTAGCAGGCCATTTTGGTCACTCAATGACGGGC
Completion: -0.337

Prompt: Any idea what its PBM binding z-score is? The sequence is GCTAGTTGGTCAGTAAAAGGTCACGCACCGGTCG
Completion: 0.692

Prompt: Any idea what its PBM binding z-score is? The sequence is GCTGCTAGGTCAACTGATCGTCAGCTAAAGCTCG
Completion: 1.38

* * *

- System: PPARg:RXRa 30nM:10nM, anti-RXR (NR concentration 30 nM, RXRa partner concentration 10 nM)
- assay-overview: PBM binding z-score (relative to random genomic background probes); higher = stronger binding; sequences stand for … in GC…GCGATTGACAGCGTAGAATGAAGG
quantity-kind: PBM binding z-score
Just the number, please, no unit attached.

These solved cases illustrate the format of a correct answer.
chain-sequence | PBM binding z-score
TCATATAAGTAAAAGGTGAAAGTCGGTGTGGTAA | 5.48
TAGCCTAGGTCAGGGGCCAGTATACCACGCGAAC | 0.91
CTCGAAATGTCGGTTGAGGTGAGTATACGGATAA | 0.0305
CCGAGTAGGTTATTGGGCATTCAGGCAACGGTGA | 0.262
ACAGACAGGTGAGTGGAGGTAACTCAGCTGGACG | -0.0591
GGAACGAGGGCGTTCGAGTTGATAGCATGGCGAT | -0.579
CCTAGTTGTTCAAGGTCACACACGCTATAGGTAC | 1.55
CGTTCAAGGTCAAGGTCAGTGAAAGAGACTCGAA | 3.49
TCATATAGGTAATACAGGTGTAAGTCGGCATCTA | 3.93
CTCGAAAGGTCGGTCGAGGTGAGTATACGGATAA | 0.401

Prompt: I'm curious: which PBM binding z-score was measured for ATCTCTAGTTAACAAGTTCAGTGAAAGAGAGGAC tested on PPARg:RXRa 30nM:10nM, anti-RXR (NR concentration 30 nM, RXRa partner concentration 10 nM)?
Completion: 0.48

Prompt: I'm curious: which PBM binding z-score was measured for CGAACGGGGGCATGAGTTGATAGCAAATGCCGAT tested on PPARg:RXRa 30nM:10nM, anti-RXR (NR concentration 30 nM, RXRa partner concentration 10 nM)?
Completion: 2.82
